Target: FGF-R1 (Homo sapiens, UniProt P11362, C488A/C584S/L457V)
Construct: starting from the endogenous methionine residue 456 to glutamate 766; made in house; host or cells: baculovirus vector expression system
Sequence (P11362 456-766 L457V/C488A/C584S): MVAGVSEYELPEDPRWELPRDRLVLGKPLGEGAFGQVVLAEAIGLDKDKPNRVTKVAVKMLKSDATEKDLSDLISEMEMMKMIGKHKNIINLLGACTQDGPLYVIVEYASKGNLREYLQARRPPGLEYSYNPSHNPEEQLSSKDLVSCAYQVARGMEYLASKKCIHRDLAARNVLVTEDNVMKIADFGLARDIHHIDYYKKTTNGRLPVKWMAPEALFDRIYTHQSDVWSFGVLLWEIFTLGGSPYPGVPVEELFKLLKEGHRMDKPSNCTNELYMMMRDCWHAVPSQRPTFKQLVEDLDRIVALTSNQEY
Assay: FGF-R spectrophotometric assay
Type: biochemical
Details: percent inhibition at 100 nM; library amides from Example 101 (R101), crude mixtures in DMSO
endpoint label: inhibition at 0.1 µM (%)

[I] Cc1oc2cc(Oc3ccnc4ccsc34)ccc2c1C(=O)Nc1n[nH]c2cccc(F)c12
[II] COc1ccc(NC(=O)c2c(C)oc3cc(Oc4ccnc5ccsc45)ccc23)c(OC)n1
[III] Cc1oc2cc(Oc3ccnc4ccsc34)ccc2c1C(=O)Nc1nncs1
Parameters: sort_by = inhibition at 0.1 µM; order = desc; input = items above. # answer = labels listed in requested order III, II, I

====

Quick reference for IC50 among some compounds
System: Huvec
Assay: bFGF Huvec proliferation
Format: cell-based, human
Conditions: Homo sapiens, HUVEC
The answer is to be given in nM; state only the numeric part.

Quick check: IC50 of "CO[C@@H]1CCN(C(=O)c2cc3nccc(Oc4ccc5c(C(=O)NCCN6CCOCC6)c(C)oc5c4)c3s2)C1" ? 745

Fill in the blank: the reported IC50 of "CCc1oc2cc(Oc3ccnc4cc(C(=O)N5CCC[C@H]5CO)sc34)ccc2c1C(=O)NC" is ____. 223

Would you mind telling me what IC50 value was observed for "CNC(=O)c1c(C)sc2cc(Oc3ccnc4cc(C(=O)N5C[C@H](OC)[C@H](OC)C5)sc34)ccc12" ? 235

Using the record for "CNC(=O)c1c(C)n(C)c2cc(Oc3ccnc4cc(-c5nccn5C)sc34)ccc12" , report its IC50. 847

I'd like to know its IC50. The compound in question is "Cc1sc2cc(Oc3ccnc4cc(C(=O)N5CCC[C@H]5CO)sc34)ccc2c1C(=O)NC1CC1" 504

May I ask what IC50 has been recorded for "CCCCNC(=O)c1c(C)n(C)c2cc(Oc3ccnc4cc(-c5nccs5)sc34)ccc12" ? 619

Report IC50 for "CNC(=O)c1c(C)oc2cc(Oc3ccnc4cc(C(=O)N5CCC[C@H]5COC)sc34)ccc12" please. 130

# ---- query compound ----
Returns the measured IC50 for the input compound. Input: "CNC(=O)c1c(C)sc2cc(Oc3ccnc4cc(C(=O)N5CC[C@@H](O)C5)sc34)ccc12" 145

====

Biological target: unphosphorylated VEGF-R2Δ50 (FLVK) (Homo sapiens, UniProt P35968, DEL940-989/E990V)
Construct: VEGF-R2Δ50 contains residues 806–939 and 990–1171
Sequence (P35968 with tags, fused parts or gaps DEL940-989/E990V limits assumed): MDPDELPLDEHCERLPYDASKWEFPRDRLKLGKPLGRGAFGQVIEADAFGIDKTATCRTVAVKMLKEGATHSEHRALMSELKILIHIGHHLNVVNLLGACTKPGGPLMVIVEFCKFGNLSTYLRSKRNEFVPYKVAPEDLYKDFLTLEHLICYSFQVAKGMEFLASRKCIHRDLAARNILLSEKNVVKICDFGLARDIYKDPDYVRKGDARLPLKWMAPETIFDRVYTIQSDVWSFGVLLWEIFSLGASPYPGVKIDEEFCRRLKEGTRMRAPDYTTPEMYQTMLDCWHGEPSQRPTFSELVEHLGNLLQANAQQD
Test: VEGF-R2 coupled spectrophotometric assay, unphosphorylated VEGF-R2Δ50 (FLVK)
Details: unphosphorylated VEGF-R2Δ50
pKi: −log10 of the molar value.
endpoint label: pKi

[A] Cc1sc2cc(Oc3ccnc4cc(-c5nccn5C)sc34)ccc2c1C(=O)NC1CC1
[B] Cc1c(C(=O)NC2CC2)c2ccc(Oc3ccnc4cc(-c5nccn5C)sc34)cc2n1C
Field: lower pKi | Options: A / B Choose, then provide that item's label. A
(A: 9.70, B: 10.09)

[I] CCc1oc2cc(Oc3ccnc4cc(C(=O)N5CC[C@@H](OC)C5)sc34)ccc2c1C(=O)NC
[II] CNC(=O)c1c(C)n(C)c2cc(Oc3ccnc4cc(C(=O)N(C)C)sc34)ccc12
[III] Cc1sc2cc(Oc3ccnc4cc(C(=O)N5CCC5)sc34)ccc2c1C(=O)NCC1CC1
Rank ascending by pKi. Would you mind listing the labels in the order asked for? II, I, III
(II: 7.94, I: 8.84, III: 9.70)

====

Molecular target: KDR (VEGFR2) (Homo sapiens, UniProt P35968)
Construct: expressed in transfected cells; host or cells: porcine aorta endothelial (PAE)-KDR cells
Sequence (P35968 20-1356): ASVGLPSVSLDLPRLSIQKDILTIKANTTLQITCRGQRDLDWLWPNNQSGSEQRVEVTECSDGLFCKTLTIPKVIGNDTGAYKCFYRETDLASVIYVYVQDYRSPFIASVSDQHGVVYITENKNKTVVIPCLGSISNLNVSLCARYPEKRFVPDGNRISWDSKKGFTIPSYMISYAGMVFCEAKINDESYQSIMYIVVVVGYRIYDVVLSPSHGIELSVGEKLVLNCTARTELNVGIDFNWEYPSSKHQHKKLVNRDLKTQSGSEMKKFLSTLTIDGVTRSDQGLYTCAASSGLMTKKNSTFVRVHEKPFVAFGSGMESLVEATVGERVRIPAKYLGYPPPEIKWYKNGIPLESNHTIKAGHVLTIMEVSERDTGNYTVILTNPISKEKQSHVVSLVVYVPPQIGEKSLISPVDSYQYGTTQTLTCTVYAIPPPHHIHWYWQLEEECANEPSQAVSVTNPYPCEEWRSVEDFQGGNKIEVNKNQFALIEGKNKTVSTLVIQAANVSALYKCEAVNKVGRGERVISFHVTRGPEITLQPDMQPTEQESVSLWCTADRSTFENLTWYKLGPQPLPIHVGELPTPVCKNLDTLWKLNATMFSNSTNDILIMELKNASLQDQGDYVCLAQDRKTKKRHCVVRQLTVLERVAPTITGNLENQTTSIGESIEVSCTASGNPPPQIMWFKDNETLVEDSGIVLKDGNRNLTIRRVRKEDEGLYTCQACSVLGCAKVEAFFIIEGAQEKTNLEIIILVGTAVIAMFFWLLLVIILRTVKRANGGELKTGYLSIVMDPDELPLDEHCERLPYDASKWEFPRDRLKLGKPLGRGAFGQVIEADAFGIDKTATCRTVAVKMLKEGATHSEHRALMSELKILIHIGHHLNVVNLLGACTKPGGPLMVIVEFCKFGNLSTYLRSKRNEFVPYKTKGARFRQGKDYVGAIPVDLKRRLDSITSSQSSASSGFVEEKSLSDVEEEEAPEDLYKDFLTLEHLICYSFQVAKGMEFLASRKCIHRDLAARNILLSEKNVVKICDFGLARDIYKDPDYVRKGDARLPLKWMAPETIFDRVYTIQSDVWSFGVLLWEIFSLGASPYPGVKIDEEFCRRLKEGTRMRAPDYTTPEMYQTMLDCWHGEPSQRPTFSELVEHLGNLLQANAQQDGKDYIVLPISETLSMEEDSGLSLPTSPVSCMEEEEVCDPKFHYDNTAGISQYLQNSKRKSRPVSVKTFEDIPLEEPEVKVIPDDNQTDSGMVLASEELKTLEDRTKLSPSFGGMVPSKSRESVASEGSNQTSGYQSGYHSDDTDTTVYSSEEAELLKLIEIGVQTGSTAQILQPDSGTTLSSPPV
Test: KDR (VEGFR2) phosphorylation in PAE-KDR cells assay
Type: cell-based
Conditions: PAE cells overexpressing human KDR, VEGF stimulated; read-out: PAE KDR autophos IC50 (nM) AVG
Description: KDR (VEGFR2) Phosphorylation in PAE-KDR Cells Assay This assay determines the ability of a test compound to inhibit the autophosphorylation of KDR in porcine aorta endothelial (PAE)-KDR cells. PAE cells that overexpress human KDR were used in this assay. […] Phosphorylation status was assessed by spectrophotometer reading at 450 nm. IC50 values were calculated by curve fitting using a four-parameter analysis.
endpoint label: IC50 (nM)

Sample answers from the record:
Entry "CNC(=O)c1c(C)sc2cc(Oc3ccnc4cc(-c5nccn5C)sc34)ccc12" : reported IC50 = ? 0.31

So what's the measured IC50 for this one? "CCCCNC(=O)c1c(C)n(C)c2cc(Oc3ccnc4cc(-c5nccs5)sc34)ccc12" 0.24

What does the data say about its IC50? Entry: "CNC(=O)c1c(C)sc2cc(Oc3ccnc4cc(C(=O)N5CCC[C@H]5CO)sc34)ccc12" 0.9

[a] Cc1c(C(=O)NC2CC2)c2ccc(Oc3ccnc4cc(-c5nccn5C)sc34)cc2n1C
[b] CCCNC(=O)c1c(C)n(C)c2cc(Oc3ccnc4cc(-c5nccn5C)sc34)ccc12
When the recorded IC50 values are compared, which is smaller: that of a or that of b ? # respond with the chosen item's label a
(a: 0.217 nM, b: 0.4 nM)

[P] CNC(=O)c1c(C)sc2cc(Oc3ccnc4cc(C(=O)N5CCC[C@H]5COC)sc34)ccc12
[Q] CNC(=O)c1c(C)n(C)c2cc(Oc3ccnc4cc(-c5nccn5C)sc34)ccc12
[R] Cc1c(C(=O)NCC2CC2)c2ccc(Oc3ccnc4cc(-c5nc(C(C)(C)O)cs5)sc34)cc2n1C
[S] CNC(=O)c1c(C)oc2cc(Oc3ccnc4cc(-c5nccn5C)sc34)ccc12
Arrange by IC50, high to low. In plain terms: list the labels in the order you were asked to. R, P, Q, S
(R: 87 nM, P: 1.8 nM, Q: 0.47 nM, S: 0.21 nM)

[P] CNC(=O)c1c(C)n(C)c2cc(Oc3ccnc4cc(C(=O)N5CC[C@@H](O)C5)sc34)ccc12
[Q] CNC(=O)c1c(C)sc2cc(Oc3ccnc4cc(C(=O)N5CC[C@@H](OC)C5)sc34)ccc12
[R] CNC(=O)c1c(C)oc2cc(Oc3ccnc4cc(C(=O)N5CC[C@@H](OC)C5)sc34)ccc12
In this exercise, place the 3 compounds in ascending sequence of their recorded IC50. A ranking is expressed here by listing the labels in the requested order. R, Q, P
(R: 0.14 nM, Q: 0.47 nM, P: 1.7 nM)

[P] CNC(=O)c1c(C)sc2cc(Oc3ccnc4cc(C(=O)N5C[C@@H](O)[C@@H](O)C5)sc34)ccc12
[Q] CNC(=O)c1c(C)n(C)c2cc(Oc3ccnc4cc(C(=O)N5CC[C@@H](OC)C5)sc34)ccc12
Parameter check: reported IC50 is higher for which label, P or Q ? Write down the label attached to your selection. P
(P: 1.95 nM, Q: 0.62 nM)

====

Molecular target: unphosphorylated VEGF-R2Δ50 (FLVK) (Homo sapiens, UniProt P35968, DEL940-989/E990V)
Construct: VEGF-R2Δ50 contains residues 806–939 and 990–1171; made in house; host or cells: baculovirus/insect cell system
Assay: VEGF-R2 coupled spectrophotometric assay, unphosphorylated VEGF-R2Δ50 (FLVK)
Type: biochemical
Conditions: 50 nM compound; unphosphorylated VEGF-R2Δ50; read-out: FLVK (% inh @ 50 nM)
endpoint label: inhibition at 0.05 µM (%)

Below, 3 compounds whose answers are already recorded.
Could you share which inhibition at 0.05 µM value was measured for "Cc1oc2cc(Oc3ccnc4cc(C(=O)N5CCC[C@H]5CO)sc34)ccc2c1C(=O)NCC(C)C" ? 81

Name the reported inhibition at 0.05 µM value associated with the compound "Cc1oc2cc(Oc3ccnc4cc(C(=O)N5CC[C@@H](O)C5)sc34)ccc2c1C(=O)NCC(C)C" 94

Report inhibition at 0.05 µM for "CO[C@@H]1CCN(C(=O)c2cc3nccc(Oc4ccc5c(C(=O)NCCO)c(C)sc5c4)c3s2)C1" please. 74

[a] CNC(=O)c1c(C)n(C)c2cc(Oc3ccnc4cc(-c5nc(C(C)(C)O)co5)sc34)ccc12
[b] CNCC1CCN(C(=O)c2cc3nccc(Oc4ccc5c(C(=O)NC)c(C)n(C)c5c4)c3s2)C1 (centres unmarked)
Of the two listed items, which has the higher inhibition at 0.05 µM? First: a Second: b Response format: the label of the selected entry. b
(b: 68%, a: 41%)

[I] Cc1cc2nccc(Oc3ccc4c(C(=O)NCCN5CCOCC5)c(C)sc4c3)c2s1
[II] Cc1sc2cc(Oc3ccnc4cc(C(=O)N5CC[C@@H](O)C5)sc34)ccc2c1C(=O)NC1CC1
For the two items I and II , which reports the higher inhibition at 0.05 µM value? Answer = label. II
(II: 94%, I: 40%)
